Study target: Voltage-gated inwardly rectifying potassium channel KCNH2 (Homo sapiens) (UniProt Q12809)
Sequence (Q12809 whole entry, looked up): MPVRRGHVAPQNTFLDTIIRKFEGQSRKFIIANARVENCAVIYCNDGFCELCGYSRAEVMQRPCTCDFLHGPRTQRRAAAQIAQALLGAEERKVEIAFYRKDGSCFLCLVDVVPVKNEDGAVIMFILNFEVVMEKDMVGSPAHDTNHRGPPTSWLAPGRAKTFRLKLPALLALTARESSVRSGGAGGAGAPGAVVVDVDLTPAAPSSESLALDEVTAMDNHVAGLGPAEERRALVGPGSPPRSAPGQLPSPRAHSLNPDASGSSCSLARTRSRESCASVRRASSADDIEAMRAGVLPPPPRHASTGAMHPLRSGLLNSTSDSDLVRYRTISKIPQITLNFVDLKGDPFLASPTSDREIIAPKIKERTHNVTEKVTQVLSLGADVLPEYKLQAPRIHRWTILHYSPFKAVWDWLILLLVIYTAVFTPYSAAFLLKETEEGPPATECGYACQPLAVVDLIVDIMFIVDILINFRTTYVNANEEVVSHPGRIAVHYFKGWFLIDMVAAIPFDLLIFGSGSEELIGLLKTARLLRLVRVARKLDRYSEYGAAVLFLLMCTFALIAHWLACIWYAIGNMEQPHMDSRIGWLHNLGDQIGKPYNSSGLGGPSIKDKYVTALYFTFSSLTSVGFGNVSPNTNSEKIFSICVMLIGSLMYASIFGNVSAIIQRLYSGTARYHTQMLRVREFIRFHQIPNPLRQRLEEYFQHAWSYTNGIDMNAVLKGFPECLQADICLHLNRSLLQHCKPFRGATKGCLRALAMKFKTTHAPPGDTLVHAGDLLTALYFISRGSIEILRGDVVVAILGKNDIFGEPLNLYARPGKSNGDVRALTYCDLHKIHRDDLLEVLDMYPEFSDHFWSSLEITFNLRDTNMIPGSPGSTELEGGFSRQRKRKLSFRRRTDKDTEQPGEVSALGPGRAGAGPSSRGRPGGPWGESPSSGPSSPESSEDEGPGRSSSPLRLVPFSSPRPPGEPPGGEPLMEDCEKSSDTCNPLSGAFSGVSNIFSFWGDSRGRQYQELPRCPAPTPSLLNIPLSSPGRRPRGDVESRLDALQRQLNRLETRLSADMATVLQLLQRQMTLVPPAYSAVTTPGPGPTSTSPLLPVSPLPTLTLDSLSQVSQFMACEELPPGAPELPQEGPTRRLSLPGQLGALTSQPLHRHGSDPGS
Assay details: Human Ether-a-go-go-Related Gene (hERG) channel small molecule antagonists: fluorescence cell-based qHTS assay (AID 1671200); note: nearly all actives have a fitted effect of over 50% in size
Condition label: hERG-U2OS cells, FluxOR thallium flux fluorescence; series mostly up to 76.8 µM
From the text: National Center for Advancing Translational Sciences [NCATS] U.S. Environmental Protection Agency [EPA] National Institutes of Environmental Health Sciences [NIEHS] National Toxicology Program [NTP] U.S. Food and Drug Administration [FDA] Mutations in the hERG channel cause Long QT (LQT) syndrome. LQT syndrome is a cardiac disorder which can cause ventricle arrhythmia and sudden death. Additionally, compounds which block the hERG channel can cause acquired LQT syndrome. […]
Records with an inconclusive call do not appear. Activity calls are given as the source filed them. Calls come from the whole dose curve; as a rule, active = well fitted inhibition curve with a large enough effect in the repeat runs; inconclusive = weak or mixed curves; inactive = flat fitted curve, though single readings scatter.
Possible outcomes: 1.0 for active, 0.0 for inactive

# Compound, Study target, Class assignment
measured = [
    ("O=C(CCCN1CCC(O)(c2ccc(Br)cc2)CC1)c1ccc(F)cc1", "Voltage-gated inwardly rectifying potassium channel KCNH2 (Homo sapiens) (UniProt Q12809)", 1.0),
    ("CCCOc1ccc(S(=O)(=O)N2CCN(CC)CC2)cc1-c1nc2c(CC)n(Cc3ccccn3)nc2c(=O)[nH]1", "Voltage-gated inwardly rectifying potassium channel KCNH2 (Homo sapiens) (UniProt Q12809)", 1.0),
    ("COCCOC", "Voltage-gated inwardly rectifying potassium channel KCNH2 (Homo sapiens) (UniProt Q12809)", 0.0),
]

----------
Assay details: qHTS assay to identify small molecule antagonists of the thyroid receptor (TR) signaling pathway - cell viability counter screen (AID 743064); note: nearly all actives have a fitted effect of over 50% in size
Condition label: GH3.TRE-Luc viability, CellTiter-Fluor, 24 h; series mostly up to 70.3 µM
Results filed as inconclusive are left out. Calls of active or inactive are those of the source. Calls come from the whole dose curve; as a rule, active = well fitted cell-killing curve with a large enough effect in the repeat runs; inconclusive = weak or mixed curves, or effect the other way; inactive = no such curve, though single readings can be large or run the other way.
Possible outcomes: t = active, f = inactive

# Compound, Class assignment
measured = [
    ("NC(=O)Nc1ccc(Cl)c(Cl)c1", "f"),
    ("CCn1cc(C(=O)O)c(=O)c2cc(F)c(N3CCNCC3)nc21", "f"),
    ("COc1cc2[nH]c(=O)[nH]c(=O)c2cc1OC", "f"),
    ("C=CC(C)(C)CC(=O)OC", "f"),
    ("Nc1nccs1", "f"),
    ("CCN(Cc1cccc(S(=O)(=O)O)c1)c1ccc(C(=C2C=CC(=[N+](CC)Cc3cccc(S(=O)(=O)[O-])c3)C=C2)c2ccccc2)cc1", "f"),
    ("CC(Cl)C(Cl)Cl (centres undefined)", "f"),
    ("CCCCC(CC)CNCC(CC)CCCC (centres undefined)", "f"),
    ("Cc1c(C(=O)NN2CCCCC2)nn(-c2ccc(Cl)cc2Cl)c1-c1ccc(Cl)cc1", "t"),
    ("CCOC(=O)/C=C/C(=O)O", "f"),
    ("Cc1cc2nc3ccc(=[N+](C)C)cc-3sc2cc1N", "t"),
    ("CN1C(=O)CC(C)(c2ccccc2)C1=O (centres undefined)", "f"),
    ("O=C(N/N=C/c1ccc([N+](=O)[O-])o1)c1ccc(O)cc1", "f"),
    ("NC(=O)Nc1ccc(Cl)cc1", "f"),
    ("Cc1cc(S(=O)(=O)O)ccc1N=Nc1c(O)ccc2ccccc12", "t"),
    ("O=C(N[C@@H](c1ccccc1)[C@@H]1CCCCN1)c1cccc(C(F)(F)F)c1Cl", "t"),
    ("CCOC(=O)c1ccccc1C", "f"),
    ("O=C(CCCCCCCCC#CI)Oc1ccccc1", "f"),
    ("CC(CCc1ccc2c(c1)OCO2)NN (centres undefined)", "f"),
    ("CC1(C)C2=CCCC(C)(C)[C@]23CC[C@H]1C3", "f"),
    ("COc1cc2ncnc(Nc3ccc(F)c(Cl)c3)c2cc1OCCCN1CCOCC1", "t"),
    ("Cc1ccc(S(=O)(=O)NC2CCCCC2)cc1", "f"),
    ("Cc1cnc(C)c(C)n1", "f"),
    ("CO[C@@]12[C@H](COC(N)=O)C3=C(C(=O)C(C)=C(N)C3=O)N1C[C@@H]1N[C@@H]12", "t"),
]

Entry source: PubChem BioAssay (Tox21)
